# TEST DESCRIPTION: Solubility measurement (DMSO solution method), McIlvaine buffer pH 4.5 or 6.8
# Type: physicochemical
# COND: aqueous buffer, kinetic from dmso stock; McIlvaine buffer pH 4.5; DMSO stock diluted to 250 μM; 24 h shaking at ambient temperature; read-out: solubility pH 4.5
MEASUREMENT LABEL: solubility at 24 h

C[C@H](Oc1cc(-n2cc(Cn3ccnc3)nn2)nc(-c2noc3c2CCC[C@@]32CCCc3sc(N)c(C#N)c32)n1)[C@@H]1CCCN1C [II-113] = > 173 µg/mL

Answer for every listed entry: what is its solubility at 24 h? The entries follow.
1. CCOC(=O)c1ccn(-c2cc(O[C@@H](C)[C@@H]3CCCN3C)nc(-c3noc4c3CCC[C@@]43CCCc4sc(N)c(C#N)c43)n2)n1 [II-23]
2. Cc1ccc(-c2cc(O[C@@H](C)[C@@H]3CCCN3C)nc(-c3onc4c3CCC[C@@]43CCCc4sc(N)c(C#N)c43)n2)cn1 [I-28]
3. C[C@H](Oc1cc(N2CCNC3(COC3)C2)nc(-c2onc3c2CCC[C@@]32CCCc3sc(N)c(C#N)c32)n1)[C@@H]1CCCN1C [I-4]
4. CO[C@@H]1C[C@@H]([C@H](C)Oc2cc(-c3ccn(C)n3)nc(-c3noc4c3CCC[C@@]43CCCc4sc(N)c(C#N)c43)n2)N(C)C1 [II-91]
5. C[C@H](Oc1cc(-c2ccn(C3COC3)n2)nc(-c2noc3c2CCC[C@@]32CCCc3sc(N)c(C#N)c32)n1)[C@@H]1CCCN1C [II-109]
6. C[C@H](Oc1cc(N2C[C@H](C)N(C)[C@@H](C)C2)nc(-c2onc3c2CCC[C@@]32CCCc3sc(N)c(C#N)c32)n1)[C@@H]1CCCN1C [I-43]
7. C[C@H]1CN(C)CCCN1c1cc(N2CCN(C)CC2)nc(-c2onc3c2CCC[C@@]32CCCc3sc(N)c(C#N)c32)n1 [I-7]

Result block:
["75 µg/mL", "93 µg/mL", "> 148 µg/mL", "118 µg/mL", "117 µg/mL", "> 346 µg/mL", "> 139 µg/mL"]

---

Provide the recorded efflux ratio at 90 min, 10 μM for the entries that follow.
# TEST DESCRIPTION: Caco-2 assay (permeability PappAB, PappBA, efflux ratio)
# Type: in vitro ADME
# COND: human, Caco-2; efflux ratio PappBA/PappAB; 10 μM test compound, pH 7.4; read-out: Caco ER

Here is how some compounds turned out for efflux ratio at 90 min, 10 μM.
C[C@H](Oc1cc(-n2cncc3ccnc2-3)nc(-c2noc3c2CCC[C@@]32CCCc3sc(N)c(C#N)c32)n1)[C@@H]1CCCN1C = 1.1
C[C@H](Oc1cc(-c2cc[nH]n2)nc(-c2noc3c2CCC[C@@]32CCCc3sc(N)c(C#N)c32)n1)[C@@H]1CCCN1C = 63.3

Query block: Indicate the recorded efflux ratio at 90 min, 10 μM value for this compound: `C[C@H](Oc1cc(N2C[C@H](C)N(C)[C@@H](C)C2)nc(-c2noc3c2CCC[C@@]32CCCc3sc(N)c(C#N)c32)n1)[C@@H]1CCCN1C`
Result block: 19.9

---

# MEASURED ON: KRAS (G12C)::SOS1 (Homo sapiens (Human), UniProt P01116, C118S/C51S/C80L/G12C)
# Sequence (P01116 other isoform, or with tags, fused parts or gaps G12C/C51S/C80L/C118S): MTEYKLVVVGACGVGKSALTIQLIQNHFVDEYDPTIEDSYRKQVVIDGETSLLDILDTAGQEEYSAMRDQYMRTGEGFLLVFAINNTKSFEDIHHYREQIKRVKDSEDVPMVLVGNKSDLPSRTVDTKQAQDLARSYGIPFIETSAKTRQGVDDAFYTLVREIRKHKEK
# TEST DESCRIPTION: KRAS::SOS1 AlphaScreen binding assay, KRAS G12C
MEASUREMENT LABEL: pIC50
Give bare numbers, as −log10 of the molar value.

Please review the following examples before continuing.
C[C@H](Oc1cc(-n2ccc(-c3cn(C4CCOCC4)nn3)n2)nc(-c2noc3c2CCC[C@@]32CCCc3sc(N)c(C#N)c32)n1)[C@@H]1CCCN1C = 8.70
CO[C@H]1CCN(C)[C@@H]1[C@H](C)Oc1cc(-n2ccc(C(=O)N[C@@H]3CCOC3)n2)nc(-c2noc3c2CCC[C@@]32CCCc3sc(N)c(C#N)c32)n1 = 9.00
CO[C@H]1CCN(C)[C@@H]1[C@H](C)Oc1cc(-n2ccc(C(=O)N[C@H]3CCOC3)n2)nc(-c2onc3c2CCC[C@@]32CCCc3sc(N)c(C#N)c32)n1 = 9.00
C[C@H](Oc1cc(-n2ccc(-c3cn(CC4(C)COC4)nn3)n2)nc(-c2noc3c2CCC[C@@]32CCCc3sc(N)c(C#N)c32)n1)[C@@H]1CCCN1C = 8.70
C[C@H](Oc1cc(-c2cccc(CO)c2)nc(-c2noc3c2CCC[C@@]32CCCc3sc(N)c(C#N)c32)n1)[C@@H]1CCCN1C = 8.52
C[C@H](Oc1cc(-n2ccnc2Cl)nc(-c2noc3c2CCC[C@@]32CCCc3sc(N)c(C#N)c32)n1)[C@@H]1CCCN1C = 8.52
C[C@H](Oc1cc(-c2cnn(C)n2)nc(-c2noc3c2CCC[C@@]32CCCc3sc(N)c(C#N)c32)n1)[C@@H]1C[C@@H](F)CN1C = 8.15
C[C@H](Oc1cc(N2CCN(C)C3(COC3)C2)nc(-c2onc3c2CCC[C@@]32CCCc3sc(N)c(C#N)c32)n1)[C@@H]1C[C@@H](F)CN1C = 8.70

// input: 3 compounds below; output: pIC50 for each
1. C[C@H](Oc1cc(N2CCC[C@@H](O)C2)nc(-c2noc3c2CCC[C@@]32CCCc3sc(N)c(C#N)c32)n1)[C@@H]1CCCN1C
2. C[C@H](Oc1cc(-c2cccc(C(N)=O)c2)nc(-c2noc3c2CCC[C@@]32CCCc3sc(N)c(C#N)c32)n1)[C@@H]1CCCN1C
3. C[C@H](Oc1cc(N2Cc3cnn(C)c3C2)nc(-c2noc3c2CCC[C@@]32CCCc3sc(N)c(C#N)c32)n1)[C@@H]1CCCN1C

Result block:
1. 8.70
2. 8.70
3. 8.52

Batch request: pIC50 for each of the following compounds.
1. C[C@H](Oc1cc(N2CCNC3(COC3)C2)nc(-c2onc3c2CCC[C@@]32CCCc3sc(N)c(C#N)c32)n1)[C@@H]1CCCN1C
2. C[C@H](Oc1cc(N2C[C@@H]3[C@@H](N)[C@@H]3C2)nc(-c2noc3c2CCC[C@@]32CCCc3sc(N)c(C#N)c32)n1)[C@@H]1CCCN1C
3. C[C@H](Oc1cc(-n2cncc3ccnc2-3)nc(-c2noc3c2CCC[C@@]32CCCc3sc(N)c(C#N)c32)n1)[C@@H]1CCCN1C
4. C[C@H](Oc1cc(-c2ccn(C3COC3)n2)nc(-c2noc3c2CCC[C@@]32CCCc3sc(N)c(C#N)c32)n1)[C@@H]1CCCN1C
5. C[C@H](Oc1cc(-n2ccc(C(=O)N3CCCC3)n2)nc(-c2noc3c2CCC[C@@]32CCCc3sc(N)c(C#N)c32)n1)[C@@H]1CCCN1C
6. CO[C@@H]1C[C@@H]([C@H](C)Oc2cc(N3CCN(C)C4(CC4)C3)nc(-c3onc4c3CCC[C@@]43CCCc4sc(N)c(C#N)c43)n2)N(C)C1
7. Cc1cn(C)nc1-c1cc(O[C@@H](C)[C@@H]2CCCN2C)nc(-c2noc3c2CCC[C@@]32CCCc3sc(N)c(C#N)c32)n1

Result block:
1: 8.70; 2: 8.30; 3: 8.70; 4: 8.70; 5: 9.00; 6: 8.30; 7: 8.70

Would you be so kind as to report pIC50 for each listed record?
1. C[C@H](Oc1cc(-n2cncn2)nc(-c2noc3c2CCC[C@@]32CCCc3sc(N)c(C#N)c32)n1)[C@@H]1CCCN1C
2. C[C@H]1CN(C)CCCN1c1cc(N2CC[C@H](N(C)C)C2)nc(-c2noc3c2CCC[C@@]32CCCc3sc(N)c(C#N)c32)n1

Result block:
8.70
7.13

---

# TEST DESCRIPTION: Solubility measurement (DMSO solution method), McIlvaine buffer pH 4.5 or 6.8
# Assay type: physicochemical
# COND: aqueous buffer, kinetic from dmso stock; McIlvaine buffer pH 6.8; DMSO stock diluted to 250 μM; 24 h shaking at ambient temperature; read-out: solubility pH 6.8
For each of the compounds below, state its solubility at 24 h.

CC(C)[C@@H]1CN(c2cc(O[C@@H](C)[C@@H]3CCCN3C)nc(-c3noc4c3CCC[C@@]43CCCc4sc(N)c(C#N)c43)n2)CCN1 = > 147 µg/mL
Cc1nc(-c2cc(O[C@@H](C)[C@@H]3CCCN3C)nc(-c3onc4c3CCC[C@@]43CCCc4sc(N)c(C#N)c43)n2)cs1 = < 1 µg/mL

Query block: Kindly indicate its recorded solubility at 24 h. Item: `CO[C@H]1CCN(C)[C@@H]1[C@H](C)Oc1cc(-n2ccc(C(=O)N[C@H]3CCOC3)n2)nc(-c2noc3c2CCC[C@@]32CCCc3sc(N)c(C#N)c32)n1`
Result block: < 1 µg/mL
